Test system: Botrytis cinerea
assayInfo: Test E: tomato Botrytis, preventive spray on tomato seedlings
Type: in vivo
assaySetup: 50 ppm, 100 = 100% disease control, 0 = no control
Please enter rule met where Test E disease control rating is greater than or equal to 90%, and rule not met where it is lower.

chemicalsmiles=Cn1cc(-c2ccccc2)c(-c2c(F)cccc2F)c(Cl)c1=O category="rule met"

Record Cn1cc(-c2cc(F)c(F)cc2F)c(-c2ccc(F)cc2Cl)c(Cl)c1=O ; criterion: Test E disease control rating no lower than 90%. Met?
rule not met

Record Cn1c(Cl)c(-c2ccc(F)cc2Cl)c(-c2c(F)cccc2F)c(Cl)c1=O ; criterion: Test E disease control rating no lower than 90%. Met?
rule not met

Record COc1ccc(-c2c(-c3cc(OC)ccc3Cl)cn(C)c(=O)c2Cl)c(Cl)c1 ; criterion: Test E disease control rating no lower than 90%. Met?
rule met

* * *

Reported pest or weed control at 50 ppm values for the following molecules.
System: Phakopsora pachyrhizi
assayInfo: Test D: Asian soybean rust, preventive spray on soybean seedlings
Assay type: in vivo
assaySetup: Phakopsora pachyrhizi, 216 h, 50 ppm, 100 = 100% disease control, 0 = no control, read-out: Test D disease control rating
Respond numerically; units are % and should not be typed.

Here are 5 molecules together with their reported answers.
molecule="COc1cc(OC)c(F)c(-c2cn(C)c(=O)c(Cl)c2-c2ccc(F)cc2F)c1 [Compound 51]" endpointname="pest or weed control at 50 ppm" recordednumber=99
molecule="COc1cc(OC)cc(-c2cn(OC)c(=O)c(Cl)c2-c2ccc(F)cc2Cl)c1 [Compound 19]" endpointname="pest or weed control at 50 ppm" recordednumber=11
molecule="COc1cc(OC)c(Cl)c(-c2cn(OC(F)F)c(=O)c(Cl)c2-c2ccc(F)cc2Cl)c1 [Compound 38]" endpointname="pest or weed control at 50 ppm" recordednumber=75
molecule="COc1cc(OC)c(Cl)c(-c2cn(OC)c(=O)c(Cl)c2-c2ccc(F)cc2Cl)c1 [Compound 22]" endpointname="pest or weed control at 50 ppm" recordednumber=97
molecule="COc1ccc(Cl)c(-c2cn(C)c(=O)c(Cl)c2-c2ccc(F)cc2F)c1 [Compound 30]" endpointname="pest or weed control at 50 ppm" recordednumber=100

Please indicate pest or weed control at 50 ppm recorded for COc1ccc(Cl)c(-c2cn(C)c(=O)c(Br)c2-c2ccc(F)cc2Cl)c1 [Compound 33]
89

Please indicate pest or weed control at 50 ppm recorded for COc1cc(OC)c(Cl)c(-c2cn(C)c(=O)c(Cl)c2-c2ccc(F)cc2F)c1 [Compound 29]
100

Please indicate pest or weed control at 50 ppm recorded for COc1cc(OC)c(Br)c(-c2cn(C)c(=O)c(Cl)c2-c2ccc(F)cc2F)c1 [Compound 9]
100

* * *

Reported melting point values for the following compounds.

Here are 5 compounds together with their reported answers.
chemicalsmiles=COc1cc(OC)c(F)c(-c2cn(C)c(=O)c(Cl)c2-c2ccc(F)cc2F)c1 result="155 to 158 °C"
chemicalsmiles=COc1cc(OC)c(Cl)c(-c2cn(C)c(=O)c(C)c2-c2ccc(F)cc2Cl)c1 result="140 to 143 °C"
chemicalsmiles=COc1cc(OC)c(Cl)c(-c2cn(C)c(=O)c(Cl)c2-c2ccc(F)cc2F)c1 result="189 to 192 °C"
chemicalsmiles=COc1ccc(Br)c(-c2cn(C)c(=O)c(Cl)c2-c2ccc(F)cc2F)c1 result="227 to 230 °C"
chemicalsmiles=COc1cc(OC)c(Br)c(-c2cn(C)c(=O)c(Cl)c2-c2ccc(F)cc2F)c1 result="211 to 214 °C"

Please indicate melting point recorded for COc1ccc(Cl)c(-c2cn(C)c(=O)c(Cl)c2-c2ccc(F)cc2F)c1
192 to 195 °C

* * *

Test system: Puccinia recondita f. sp. tritici
assayInfo: Test B: wheat leaf rust, preventive spray on wheat seedlings
Type: in vivo
assaySetup: 250 ppm, 100 = 100% disease control, 0 = no control
endpointName: Test B disease control rating
Answer with the value and then the unit.

chemicalsmiles=COc1cccc(-c2cn(C)c(=O)c(Cl)c2-c2ccc(F)cc2F)c1 target="Puccinia recondita f. sp. tritici" result=100%
chemicalsmiles=CCOn1cc(-c2cc(OC)cc(OC)c2Cl)c(-c2ccc(F)cc2Cl)c(Cl)c1=O target="Puccinia recondita f. sp. tritici" result=100%

Please indicate Test B disease control rating recorded for CCOn1cc(-c2cc(OC)cc(OC)c2)c(-c2ccc(F)cc2Cl)c(Cl)c1=O
91%

Please indicate Test B disease control rating recorded for COc1cccc(-c2c(-c3ccc(F)cc3Cl)c(C#N)c(=O)n(C)c2C)c1
0%

* * *

Reported Test E disease control rating values for the following compounds.
Test system: Botrytis cinerea
assayInfo: Test E: tomato Botrytis, preventive spray on tomato seedlings
Type: in vivo
assaySetup: 50 ppm, 100 = 100% disease control, 0 = no control
From the text: General protocol for preparing test suspensions for Tests A-F: the test compounds were first dissolved in acetone in an amount equal to 3% of the final volume and then suspended at the desired concentration (in ppm) in acetone and purified water (50/50 mix by volume) containing 250 ppm of the surfactant PEG400 (polyhydric alcohol esters). The resulting test suspensions were then used in Tests A-F. The test suspension was sprayed to the point of run-off on tomato seedlings. […]

Here are 4 compounds together with their reported answers.
chemicalsmiles=COc1ccc(Cl)c(-c2cn(C)c(=O)c(Cl)c2-c2ccc(F)cc2Br)c1 result=96%
chemicalsmiles=Cc1ccsc1-c1cn(C)c(=O)c(Cl)c1-c1ccc(F)cc1Cl result=88%
chemicalsmiles=Cn1cc(-c2ccc(F)cc2Cl)c(-c2c(F)cccc2F)c(Cl)c1=O result=96%
chemicalsmiles=COc1ccc(Cl)c(-c2cn(C)c(=O)cc2-c2ccc(F)cc2Cl)c1 result=99%

Now look at this entry.
Please indicate Test E disease control rating recorded for COc1ccc(F)c(-c2cn(C)c(=O)c(Cl)c2-c2ccc(F)cc2Cl)c1
98%

* * *

Reported Test D disease control rating values for the following molecules.
System: Phakopsora pachyrhizi
assayInfo: Test D: Asian soybean rust, preventive spray on soybean seedlings
Type: in vivo
assaySetup: 50 ppm, 100 = 100% disease control, 0 = no control
Answer with the value and then the unit.

Here are 4 molecules together with their reported answers.
molecule="Cn1cc(-c2cc(F)ccc2Cl)c(-c2ccc(F)cc2Cl)cc1=O [Compound 34]" endpointname="Test D disease control rating" result=59%
molecule="Cn1cc(-c2sccc2Cl)c(-c2ccc(F)cc2Cl)c(Cl)c1=O [Compound 55]" endpointname="Test D disease control rating" result=0%
molecule="Cn1c(Cl)c(-c2ccc(F)cc2Cl)c(-c2c(F)cccc2F)c(Cl)c1=O [Compound 44]" endpointname="Test D disease control rating" result=96%
molecule="COc1cc(OC)c(Cl)c(-c2cn(OCC#N)c(=O)c(Cl)c2-c2ccc(F)cc2Cl)c1 [Compound 35]" endpointname="Test D disease control rating" result=92%

Now look at this entry.
Please indicate Test D disease control rating recorded for COc1cc(OC)cc(-c2cn(C)c(=O)c(C)c2-c2ccc(F)cc2Cl)c1 [Compound 12]
83%

* * *

Reported pest or weed control at 50 ppm values for the following compounds.
Test system: Zymoseptoria tritici
assayInfo: Test A: wheat leaf blotch, preventive spray on wheat seedlings
Type: in vivo
assaySetup: Zymoseptoria tritici, 50 ppm, 100 = 100% disease control, 0 = no control, read-out: Test A disease control rating
Respond numerically; units are % and should not be typed.

Here are 2 compounds together with their reported answers.
chemicalsmiles=COc1ccc(Cl)c(-c2cn(C)c(=O)c(C)c2-c2ccc(F)cc2Cl)c1 endpointname="pest or weed control at 50 ppm" recordednumber=100
chemicalsmiles=C#CCOn1cc(-c2cc(OC)cc(OC)c2Cl)c(-c2ccc(F)cc2Cl)c(Cl)c1=O endpointname="pest or weed control at 50 ppm" recordednumber=98

Now look at this entry.
Please respond with reported pest or weed control at 50 ppm (system Zymoseptoria tritici) for COc1ccc(Cl)c(-c2cn(C)c(=O)c(Br)c2-c2ccc(F)cc2Cl)c1 .
100

* * *

System: Botrytis cinerea
assayInfo: Test E: tomato Botrytis, preventive spray on tomato seedlings
Assay type: in vivo
assaySetup: 50 ppm, 100 = 100% disease control, 0 = no control
Reported Test E disease control rating values for the following molecules.
Respond numerically; units are % and should not be typed.

Here are 3 molecules together with their reported answers.
chemicalsmiles=COc1ccc(-c2cc(=O)n(C)cc2-c2cc(OC)ccc2Cl)c(Cl)c1 recordednumber=88
chemicalsmiles=Cn1cc(-c2ccc(F)cc2F)c(-c2ccc(F)cc2F)c(Cl)c1=O recordednumber=91
chemicalsmiles=Cc1c(-c2cn(C)c(=O)c(Cl)c2-c2ccc(F)cc2Cl)cccc1[N+](=O)[O-] recordednumber=92

Now look at this entry.
Please indicate Test E disease control rating recorded for Cn1cc(-c2ccccc2Cl)c(-c2ccc(F)cc2Cl)c(Cl)c1=O
88

* * *

Reported Test E disease control rating values for the following compounds.
Test system: Botrytis cinerea
assayInfo: Test E: tomato Botrytis, preventive spray on tomato seedlings
Type: in vivo
assaySetup: 50 ppm, 100 = 100% disease control, 0 = no control
Respond numerically; units are % and should not be typed.

Here are 3 compounds together with their reported answers.
chemicalsmiles=CCc1c(-c2ccc(F)cc2Cl)c(-c2cc(OC)ccc2Cl)cn(C)c1=O endpointname="Test E disease control rating" unit=% recordednumber=91
chemicalsmiles=COc1cc(OC)cc(-c2cn(C)c(=O)c(Cl)c2-c2ccc(F)cc2Cl)c1 endpointname="Test E disease control rating" unit=% recordednumber=100
chemicalsmiles=Cn1cc(-c2cc(F)ccc2Cl)c(-c2ccc(F)cc2Cl)c(C#N)c1=O endpointname="Test E disease control rating" unit=% recordednumber=96

Please indicate Test E disease control rating recorded for Cn1cc(-c2cc(F)ccc2Cl)c(-c2ccc(F)cc2Cl)c(Cl)c1=O
98

Please indicate Test E disease control rating recorded for Cn1cc(-c2cc(F)ccc2Cl)c(-c2ccc(F)cc2Cl)cc1=O
98

Please indicate Test E disease control rating recorded for COc1ccc(Cl)c(-c2cn(C)c(=O)cc2-c2ccccc2C(F)(F)F)c1
93
